target: EGFR (Human), P00533 [T790M/L858R]; settings: nci-h1975
Sequence (P00533 whole entry T790M/L858R, looked up): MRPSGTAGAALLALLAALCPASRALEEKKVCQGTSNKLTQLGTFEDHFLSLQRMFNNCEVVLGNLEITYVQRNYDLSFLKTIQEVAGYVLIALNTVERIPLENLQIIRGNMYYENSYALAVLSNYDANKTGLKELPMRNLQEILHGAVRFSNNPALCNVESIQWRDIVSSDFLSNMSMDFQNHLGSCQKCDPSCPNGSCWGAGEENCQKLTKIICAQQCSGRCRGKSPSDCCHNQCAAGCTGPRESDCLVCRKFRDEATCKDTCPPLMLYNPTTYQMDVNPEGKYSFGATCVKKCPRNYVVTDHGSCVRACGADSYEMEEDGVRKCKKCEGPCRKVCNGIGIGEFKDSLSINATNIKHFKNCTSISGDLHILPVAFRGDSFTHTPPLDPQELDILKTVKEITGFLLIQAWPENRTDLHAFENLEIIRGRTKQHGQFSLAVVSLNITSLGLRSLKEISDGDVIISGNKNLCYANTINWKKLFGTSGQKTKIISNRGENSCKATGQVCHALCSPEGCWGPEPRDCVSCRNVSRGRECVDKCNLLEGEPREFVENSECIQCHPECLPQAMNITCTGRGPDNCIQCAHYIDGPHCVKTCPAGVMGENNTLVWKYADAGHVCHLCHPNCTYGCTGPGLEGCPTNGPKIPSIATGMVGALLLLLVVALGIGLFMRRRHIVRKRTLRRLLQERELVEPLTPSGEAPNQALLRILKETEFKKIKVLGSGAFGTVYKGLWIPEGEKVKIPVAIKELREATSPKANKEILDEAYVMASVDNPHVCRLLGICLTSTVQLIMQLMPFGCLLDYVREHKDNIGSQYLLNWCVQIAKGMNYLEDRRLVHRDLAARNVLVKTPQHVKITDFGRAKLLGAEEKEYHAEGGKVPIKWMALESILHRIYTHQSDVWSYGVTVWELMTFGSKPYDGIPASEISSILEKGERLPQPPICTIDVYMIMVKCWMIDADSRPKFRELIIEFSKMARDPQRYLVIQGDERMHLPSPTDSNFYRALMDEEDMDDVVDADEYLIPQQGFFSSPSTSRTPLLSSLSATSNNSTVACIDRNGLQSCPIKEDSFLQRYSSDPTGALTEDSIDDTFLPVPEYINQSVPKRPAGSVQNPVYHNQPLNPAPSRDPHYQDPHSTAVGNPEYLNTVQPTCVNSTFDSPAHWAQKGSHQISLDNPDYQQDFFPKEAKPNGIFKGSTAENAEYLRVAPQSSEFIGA
pEC50: −log10 of the molar value.
MEASURED_PROPERTY: pEC50

1. COC1CCN(c2nccc(Nc3cc4c(cn3)c(N3CCCC3)nn4C(C)C)n2)CC1: 6.42

A = CC(C)n1nc(NC2CCOCC2)c2cnc(Nc3ccnc(-c4cnn(S(=O)(=O)C5CC5)c4)n3)cc21
B = CC(C)n1nc(N)c2cnc(Nc3ccnc(-c4cnn(S(=O)(=O)C5CC5)c4)n3)cc21
C = CC(C)n1nc(N2CC3(C2)C[S+]([O-])C3)c2cnc(Nc3ccnc(N4CCC(C)(O)CC4)n3)cc21
Request: Hey, can you sort those compounds up there by pEC50, smallest first? Answer format: the labels, in the requested order.
Result: C, A, B

a = CCC(C)n1nc(N2CCN(C(=O)[C@H](C)O)CC2)c2cnc(Nc3ccnc(-c4cnn(S(=O)(=O)C5CC5)c4)n3)cc21 (stereo partly drawn)
b = CC(C)n1nc(NC2COC2)c2cnc(Nc3ccnc(-c4cnn(S(=O)(=O)C5CC5)c4)n3)cc21
Request: Select one: a or b . Criterion: greater recorded pEC50. Indicate which entry you chose by stating its label.
Result: b
(b: 6.78, a: 6.09)

I = CC(C)n1nc(N2CC(O)C2)c2cnc(Nc3ccnc(-c4cnn(S(=O)(=O)C5CC5)c4)n3)cc21
II = CC(C)n1nc(N2CC[C@@H](CO)C2)c2cnc(Nc3ccnc(-c4cnn(S(=O)(=O)C5CC5)c4)n3)cc21
Request: // compare measured pEC50, left I , right II , return larger To answer, give the label that identifies your chosen option.
Result: II

a = CC(C)n1nc(N2CCS(=N)(=O)CC2)c2cnc(Nc3ccnc(-c4cnn(S(=O)(=O)C5CC5)c4)n3)cc21
b = CC(C)n1nc(N2CC(C(=O)N(C)C)C2)c2cnc(Nc3ccnc(-c4cnn(S(=O)(=O)C5CC5)c4)n3)cc21
c = CCC(C)n1nc(N2CC[C@@H](O)C2=O)c2cnc(Nc3ccnc(-c4cnn(S(=O)(=O)C5CC5)c4)n3)cc21 (stereo partly drawn)
d = CC(C)Oc1nn(C(C)C)c2cc(Nc3ccnc(-c4cnn(S(=O)(=O)C5CC5)c4)n3)ncc12
Request: Would you mind ranking these compounds by ascending pEC50? A ranking is expressed here by listing the labels in the requested order.
Result: d, a, c, b

P = COCCNC(=O)C1CN(c2nn(C(C)C)c3cc(Nc4ccnc(-c5cnn(S(=O)(=O)C6CC6)c5)n4)ncc23)C1
Q = CC(C)n1nc(N2CCCNC2=O)c2cnc(Nc3ccnc(-c4cnn(S(=O)(=O)C5CC5)c4)n3)cc21
Request: Looking only at measured pEC50, which entry is lower, P or Q ? // return label of chosen record
Result: P
(P: 5.84, Q: 6.12)

A = CC(C)n1nc(N2CC[C@H](CO)C2)c2cnc(Nc3ccnc(-c4cnn(S(=O)(=O)C5CC5)c4)n3)cc21
B = CC(C)n1nc(NCCO)c2cnc(Nc3ccnc(-c4cnn(S(=O)(=O)C5CC5)c4)n3)cc21
C = CC[C@@H](C)n1nc(N2CC[C@@H](O)C2)c2cnc(Nc3ccnc(N4CC[C@](C)(C(N)=O)C4)n3)cc21
D = CC(C)n1nc(NC2CCS(=O)(=O)C2)c2cnc(Nc3ccnc(-c4cnn(S(=O)(=O)C5CC5)c4)n3)cc21 (stereo not drawn)
Request: Order by pEC50, ascending. # the answer lists labels in the order requested
Result: C, D, B, A
(C: 5.39, D: 5.78, B: 6.06, A: 6.86)

A = CCC(C)n1nc(N2CCNC2=O)c2cnc(Nc3ccnc(N4CC[C@H](O)[C@H](F)C4)n3)cc21 (stereo partly drawn)
B = CC(C)n1nc(N2CCC3(CCNC3=O)C2)c2cnc(Nc3ccnc(-c4cnn(S(=O)(=O)C5CC5)c4)n3)cc21 (stereo not drawn)
Request: Lab note: record which item had the higher pEC50, A or B . // return label of chosen record
Result: A

a = CCC(C)n1nc(N2CC(C(C)(C)O)C2)c2cnc(Nc3ccnc(N4CCC(O)C(C)(C)C4)n3)cc21 (stereo not drawn)
b = CC(n1nc(N2CC[C@@H](O)C2)c2cnc(Nc3ccnc(N4CCC(C)(O)CC4)n3)cc21)C(F)(F)F (stereo partly drawn)
c = CC(C)n1nc(N2CC(C(=O)N3CC[C@@H](CO)C3)C2)c2cnc(Nc3ccnc(-c4cnn(S(=O)(=O)C5CC5)c4)n3)cc21
d = CC(Nc1nn(C(C)C)c2cc(Nc3ccnc(-c4cnn(S(=O)(=O)C5CC5)c4)n3)ncc12)C(N)=O (stereo not drawn)
Request: Place the items in sequence of falling pEC50. # answer = labels listed in requested order
Result: a, b, c, d
(a: 6.54, b: 6.05, c: 5.74, d: 5.33)

Reference source: the Kinase Knowledgebase extract (Sharma et al. 2016)
